assay method text: Apparent permeability in MDCK vector control cells at 5 uM
experimental setup: dog
Each record here notes measured Papp at 5 µM.
Field format: number, assumed ×10⁻⁶ cm/s, no unit text.

>>> print(df.to_string())
                                        smi  measure_name  endpoint_value
0  N#Cc1cc(C(F)(F)F)ccc1N1CCOc2cc(S(=O)(=O)Nc3ncco3)ccc21  Papp at 5 µM             6.4
1  COc1ccccc1N1CCOc2cc(S(=O)(=O)Nc3nccs3)ccc21  Papp at 5 µM              28
2  N#Cc1cc(C(F)(F)F)ccc1N1CCOc2cc(S(=O)(=O)Nc3cscn3)ccc21  Papp at 5 µM              39
3  O=S(=O)(Nc1ccncn1)c1ccc2c(-c3ccc(C(F)(F)F)cc3C3=CCNCC3)cccc2c1  Papp at 5 µM             1.3

Value lookup for Papp at 5 µM; key = N#Cc1cc(C(F)(F)F)ccc1N1CCOc2cc(S(=O)(=O)Nc3ncns3)ccc21
1.6

Reported Papp at 5 µM, compound COc1cc(F)ccc1N1CCOc2cc(S(=O)(=O)Nc3nccs3)ccc21 : ____
36

Dear colleague, I am looking for the recorded Papp at 5 µM of the following compound: O=S(=O)(Nc1ccncn1)c1ccc2c(c1)OCCN2c1ccc(C(F)(F)F)cc1C1=CCNCC1
1

# get_value(readout='Papp at 5 µM', item= N#Cc1cc(C(F)(F)F)ccc1N1CCOc2cc(S(=O)(=O)Nc3nccs3)c(F)cc21 )
19

Reported Papp at 5 µM for COc1cc(C#N)ccc1N1CCOc2cc(S(=O)(=O)Nc3nccs3)ccc21 : what is it?
20
